ASSAY SYSTEM: cloned human P2Y1 receptors (Homo sapiens (Human), UniProt P47900)
Sequence (P47900 whole entry): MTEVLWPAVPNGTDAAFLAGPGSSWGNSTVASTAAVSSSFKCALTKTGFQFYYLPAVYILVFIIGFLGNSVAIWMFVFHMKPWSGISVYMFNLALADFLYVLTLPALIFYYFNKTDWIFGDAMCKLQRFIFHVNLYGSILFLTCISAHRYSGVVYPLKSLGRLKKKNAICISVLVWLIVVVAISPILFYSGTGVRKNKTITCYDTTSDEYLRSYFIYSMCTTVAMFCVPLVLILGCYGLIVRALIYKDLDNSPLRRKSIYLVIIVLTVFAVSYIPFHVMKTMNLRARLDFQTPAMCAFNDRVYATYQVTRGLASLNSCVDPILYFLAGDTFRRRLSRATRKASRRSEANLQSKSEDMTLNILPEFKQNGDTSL
PROCEDURE SUMMARY: Binding Assay A: membrane binding assay, [33P] 2MeS-ADP
CONDITION NOTES: values marked *; WGA FlashPlate, [33P] 2MeS-ADP displacement; read-out: P2Y1 Ki (nM) *Using binding assay A
QUANTITY MEASURED: Ki (nM)
Give bare numbers, in nM.

# COMPOUND, Ki (nM)
measured = [
    ("CC(C)N1CCC2(CC1)CN(c1ccccc1NC(=O)Nc1ccc(OC(F)(F)F)cc1)c1ccccc12 [Comparator 1, reference compound]", 300),
    ("CC(C)(C)CN1CCC2(CC1)CN(c1ccccc1NC(=O)Nc1nc3ccc(Cl)cc3s1)c1c(O)ccc(F)c12", 3.7),
    ("Cc1nsc(NC(=O)Nc2ccccc2N2CC3(CCN(CC(C)(C)C)CC3)c3c(Cl)ccc(O)c32)n1", 3.3),
    ("CC(C)c1nsc(NC(=O)Nc2ccccc2N2CC3(CCN(CC(C)(C)C)CC3)c3c(F)ccc(O)c32)n1", 1.9),
    ("CC(C)N1CCC2(CC1)CN(c1ncccc1NC(=O)Nc1ccc(OC(F)(F)F)cc1)c1ccccc12 [Comparator 3, reference compound]", 5300),
    ("CC(C)c1nsc(NC(=O)Nc2ccccc2N2CC3(CCN(CC(C)(C)C)CC3)c3c(Cl)ccc(O)c32)n1", 4.4),
]

Next up:
Note down Ki recorded for CC(C)(C)CN1CCC2(CC1)CN(c1ncccc1NC(=O)Nc1ccc(C(C)(C)C)cc1)c1c(O)ccc(C(F)(F)F)c12 3.3

----------
ASSAY SYSTEM: cloned human P2Y1 receptors (Homo sapiens (Human), UniProt P47900)
PROCEDURE SUMMARY: Binding Assay B: Scintillation Proximity Assay (SPA) for P2Y1 binding
CONDITION NOTES: SPA, [33P] 2MeS-ADP displacement; read-out: P2Y1 Ki (nM) using binding assay B
Structures can show the parent of a compound that is named as a salt.
QUANTITY MEASURED: Ki (nM)
Give bare numbers, in nM.

Below are worked cases with known answers.
# MOLECULE, Ki / nM
rows = [
    ("CC(C)(C)CN1CCC2(CC1)CN(c1ccccc1NC(=O)Nc1nc3ccc(Cl)cc3s1)c1c(O)cc(F)c(-c3nc4cc(Cl)ccc4s3)c12", 33.9),
    ("CC(C)(C)CN1CCC2(CC1)CN(c1ccccc1NC(=O)Nc1nc3c(s1)CN(CC(F)(F)F)CC3)c1c(O)ccc(Cl)c12", 11.1),
    ("CC(C)(C)CN1CCC2(CC1)CN(c1ccccc1NC(=O)Nc1nc3ccc(Cl)nc3s1)c1c(O)cccc12", 5.3),
    ("CC(C)(C)CN1CCC2(CC1)CN(c1ccccc1NC(=O)Nc1nc3ccc(F)cc3s1)c1c(O)ccc(F)c12", 7.4),
    ("CC(C)(C)CN1CCC2(CC1)CN(c1ccccc1NC(=O)Nc1ccc(OC(F)F)cc1)c1c(O)ccc(C(F)(F)F)c12", 9),
]

Value sought for every listed molecule: Ki.
1. CC(C)(C)CN1CCC2(CC1)CN(c1ccccc1NC(=O)Nc1nc3ccc(F)cc3s1)c1c(O)cc(F)c(-c3ccc(C(F)(F)F)nc3)c12
2. CC(C)(C)CN1CCC2(CC1)CN(c1ccccc1NC(=O)Nc1nc3ccccc3s1)c1c(O)ccc(Cl)c12 [Example 53, TFA]

1: 41.1; 2: 7.5
